# TEST NAME: pH titration of fluorophores (pKa determination)
# Format: physicochemical

| MOLECULE | pKa |
| --- | --- |
| O=c1cc(C(F)(F)F)c2cc(F)c(O)cc2o1 | 5.7 |
| O=c1cc(C(F)(F)F)c2ccc(O)cc2o1 | 7.3 |
| Cc1cc(=O)oc2cc(O)ccc12 [7-hydroxy-4-methylcoumarin] | 7.9 |
| Cc1cc(=O)oc2cc(O)cc(F)c12 | 5.9 |

###

# TEST NAME: Quantum yield of selected dyes (Table 3)
# Format: physicochemical

| MOLECULE | Quantum Yield (pH 9) |
| --- | --- |
| O=c1cc(C(F)(F)F)c2ccc(O)cc2o1 | 0.34 |
| Cc1cc(=O)oc2c(F)c(O)c(F)c(F)c12 | 0.54 |
| O=c1cc(C(F)(F)F)c2cc(F)c(O)c(F)c2o1 | 0.23 |
| Cc1cc(=O)oc2c(F)c(O)c(F)cc12 [Compound 4, 6,8-difluoro-7-hydroxy-4-methylcoumarin] | 0.89 |
